Values from patent US12071671B2

System: HMCLs with high AOX/ROS risk signatures (AMO1, L363, LP1, OPM2, RPMI8266)
Test: HMCL viability, Cell Titer Glo assay, IC50 at 96h (high AOX/ROS risk signature lines)
Assay type: cell-based
Settings: Homo sapiens, read-out: IC50 range

{"MOLECULE": "N[C@@H](Cc1ccc(N(CCCl)CCCl)cc1)C(=O)O [Melphalan]", "IC50": "9.02 to 18.7 µM"}
